Attribution: paper PMC7796366

pIC50: −log10 of the molar value.
Here we list molecules with their recorded pIC50 when tested on acetylcholinesterase (Homo sapiens, UniProt P22303).
Sequence (P22303 32-614, species assumed): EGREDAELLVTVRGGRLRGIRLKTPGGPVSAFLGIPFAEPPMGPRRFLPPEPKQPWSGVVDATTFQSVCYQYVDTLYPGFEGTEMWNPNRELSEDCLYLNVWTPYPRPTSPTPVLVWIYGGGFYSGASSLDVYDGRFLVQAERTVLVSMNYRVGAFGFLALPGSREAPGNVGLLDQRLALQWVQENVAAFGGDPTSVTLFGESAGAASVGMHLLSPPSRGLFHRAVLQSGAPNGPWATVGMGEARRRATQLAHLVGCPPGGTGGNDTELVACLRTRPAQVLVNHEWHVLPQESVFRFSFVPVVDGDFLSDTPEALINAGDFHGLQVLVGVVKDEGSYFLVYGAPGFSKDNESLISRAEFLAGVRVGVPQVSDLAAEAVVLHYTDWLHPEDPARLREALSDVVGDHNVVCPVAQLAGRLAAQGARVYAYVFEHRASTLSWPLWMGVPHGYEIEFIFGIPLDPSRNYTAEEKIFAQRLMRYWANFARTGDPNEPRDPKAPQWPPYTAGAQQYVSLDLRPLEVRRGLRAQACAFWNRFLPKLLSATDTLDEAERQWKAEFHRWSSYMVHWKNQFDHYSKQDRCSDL

molecule | pIC50
C[n+]1cc2c3c(ccc2c2ccc4cc5c(cc4c21)OCO5)OCO3 [Sanguinarine] | 5.25
CN1Cc2c(ccc3c2OCO3)[C@@H]2[C@H]1c1cc3c(cc1C[C@@H]2O)OCO3 [Chelidonine] | 4.57
CN1CCc2cc3c(cc2C(=O)Cc2ccc4c(c2C1)OCO4)OCO3 [Protopine] | 4.18
